testSystem: T1, human IL-11 (AAH12506.1, Pro22-Leu199) (human, UniProt P20809 22-199)
T1 construct: The range Pro22-Leu199 counts on AAH12506.1; The Octet runs say only 'human IL-11'; also called hIL-11
T1 chain: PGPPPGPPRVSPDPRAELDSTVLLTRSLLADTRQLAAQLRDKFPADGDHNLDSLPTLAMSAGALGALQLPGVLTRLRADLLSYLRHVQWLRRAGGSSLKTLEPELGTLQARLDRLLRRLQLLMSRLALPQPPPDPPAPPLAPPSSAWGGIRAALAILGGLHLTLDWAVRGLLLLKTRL
protocolSummary: BLI (Octet), antibody captured, human IL-11 in solution
For each record, write down the corresponding koff.

// below: answered binders
hz8C8-VHm1-m5 + hz8C8-VLm7-m2 (antibody, human IgG1, kappa, V domains shown, human IgG1 constant regions) VH: EVQLVESGGGLVQPGGSLRLSCAASGFTFSSFGMHWVRQAPGKGLEYVAYITPGSNTIYYADTVKGRFTISRDNAKNSLYLQMNSLRAEDTAVYYCAREYYSYDEGFAYWGQGTLVTVSS VL: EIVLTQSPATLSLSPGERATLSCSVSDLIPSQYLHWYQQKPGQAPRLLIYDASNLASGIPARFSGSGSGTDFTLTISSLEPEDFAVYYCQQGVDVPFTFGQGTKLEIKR = 4.05e-05 s⁻¹
hz8C8-VHm1 + hz8C8-VLm2 (antibody, human IgG1, kappa, V domains shown, human IgG1 constant regions) VH: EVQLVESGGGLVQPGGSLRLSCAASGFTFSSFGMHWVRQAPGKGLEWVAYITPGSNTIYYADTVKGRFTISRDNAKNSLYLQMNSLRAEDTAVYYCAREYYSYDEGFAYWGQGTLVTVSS VL: EIVLTQSPATLSLSPGERATLSCSVSSSISSKYLHWYQQKPGQAPRLLIYRTSNLASGIPARFSGSGSGTDFTLTISSLEPEDFAVYYCQQGVDVPFTFGQGTKLEIKR = 0.000229 s⁻¹
hz8C8-VHm1-m3 + hz8C8-VLm7-m3 (antibody, human IgG1, kappa, V domains shown, human IgG1 constant regions) VH: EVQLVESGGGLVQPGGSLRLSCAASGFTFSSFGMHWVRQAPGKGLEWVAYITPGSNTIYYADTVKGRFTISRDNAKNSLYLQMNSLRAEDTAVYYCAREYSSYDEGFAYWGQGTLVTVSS VL: EIVLTQSPATLSLSPGERATLSCSVSDLIPSQYLHWYQQKPGQAPRLLIYGASNLASGIPARFSGSGSGTDFTLTISSLEPEDFAVYYCQQGVDVPFTFGQGTKLEIKR = < 1e-07 s⁻¹
hz8C8-VHm1 + hz8C8-VLm7 (antibody, human IgG1, kappa, V domains shown, human IgG1 constant regions; also called hz8C8m7) VH: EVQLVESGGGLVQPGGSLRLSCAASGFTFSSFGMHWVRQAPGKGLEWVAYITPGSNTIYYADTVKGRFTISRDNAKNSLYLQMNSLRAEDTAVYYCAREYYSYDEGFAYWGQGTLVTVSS VL: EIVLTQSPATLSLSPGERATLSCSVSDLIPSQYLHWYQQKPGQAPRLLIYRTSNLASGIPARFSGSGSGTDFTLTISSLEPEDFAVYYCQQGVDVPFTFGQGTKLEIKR = 3.52e-06 s⁻¹

With those in mind, consider the next binder.
q: Suppose we examine the binder hz8C8-VHm6 + hz8C8-VLm7 (antibody, human IgG1, kappa, V domains shown, human IgG1 constant regions) VH: EVQLVESGGGLVQPGGSLRLSCAASGFTFSSFGMHWVRQAPGKGLEWVAYITPGSSTIYYADTVKGRFTISRDNAKNSLYLQMNSLRAEDTAVYYCAREYYSYDEGFAYWGQGTLVTVSS VL: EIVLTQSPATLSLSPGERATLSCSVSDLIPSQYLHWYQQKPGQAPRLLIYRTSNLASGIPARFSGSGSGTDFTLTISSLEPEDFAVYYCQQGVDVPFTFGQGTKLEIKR ; what koff value has been reported?
a: 0.000127 s⁻¹
